- Subject Of Test: Tyrosine-protein kinase JAK2 (Homo sapiens, UniProt O60674)
- Sequence (O60674 whole entry): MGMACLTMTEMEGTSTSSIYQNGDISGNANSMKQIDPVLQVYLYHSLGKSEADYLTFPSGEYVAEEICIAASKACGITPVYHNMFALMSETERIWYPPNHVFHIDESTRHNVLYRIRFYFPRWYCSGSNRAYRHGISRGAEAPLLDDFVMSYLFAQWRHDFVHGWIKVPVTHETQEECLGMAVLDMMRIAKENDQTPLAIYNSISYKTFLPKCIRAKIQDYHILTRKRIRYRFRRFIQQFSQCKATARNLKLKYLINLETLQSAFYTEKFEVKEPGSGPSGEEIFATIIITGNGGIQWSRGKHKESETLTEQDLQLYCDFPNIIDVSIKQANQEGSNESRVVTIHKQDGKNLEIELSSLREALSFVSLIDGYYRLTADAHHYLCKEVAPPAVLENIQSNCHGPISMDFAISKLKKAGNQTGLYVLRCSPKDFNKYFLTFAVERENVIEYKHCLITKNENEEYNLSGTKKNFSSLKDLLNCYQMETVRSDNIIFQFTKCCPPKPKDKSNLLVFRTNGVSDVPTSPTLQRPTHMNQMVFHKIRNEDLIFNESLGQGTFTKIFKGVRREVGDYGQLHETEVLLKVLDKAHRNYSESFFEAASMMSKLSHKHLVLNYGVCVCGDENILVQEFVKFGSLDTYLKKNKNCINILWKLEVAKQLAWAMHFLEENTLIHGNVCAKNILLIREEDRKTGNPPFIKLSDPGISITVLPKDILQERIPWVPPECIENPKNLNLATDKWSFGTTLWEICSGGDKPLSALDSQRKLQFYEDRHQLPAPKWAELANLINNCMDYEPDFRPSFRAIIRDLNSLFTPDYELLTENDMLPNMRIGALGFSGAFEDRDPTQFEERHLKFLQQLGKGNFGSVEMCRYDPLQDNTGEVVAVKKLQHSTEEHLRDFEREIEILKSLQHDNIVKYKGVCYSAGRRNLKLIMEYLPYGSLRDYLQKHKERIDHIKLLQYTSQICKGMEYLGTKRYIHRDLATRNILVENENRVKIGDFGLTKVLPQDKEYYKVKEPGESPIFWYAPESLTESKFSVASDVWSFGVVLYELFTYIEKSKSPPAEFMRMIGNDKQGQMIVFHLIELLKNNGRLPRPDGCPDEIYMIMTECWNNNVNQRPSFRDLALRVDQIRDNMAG
pIC50: −log10 of the molar value.
Measurement Kind: pIC50

Input: So what does the record say about pIC50 for `O=C(CBr)Nc1cccc(-c2cnc3ccccc3n2)c1` ?
Output: < 5.00
